target of assay: PLL3 (Photorhabdus laumondii subsp. laumondii)
Sequence (Q7N8I7 entry or part of it): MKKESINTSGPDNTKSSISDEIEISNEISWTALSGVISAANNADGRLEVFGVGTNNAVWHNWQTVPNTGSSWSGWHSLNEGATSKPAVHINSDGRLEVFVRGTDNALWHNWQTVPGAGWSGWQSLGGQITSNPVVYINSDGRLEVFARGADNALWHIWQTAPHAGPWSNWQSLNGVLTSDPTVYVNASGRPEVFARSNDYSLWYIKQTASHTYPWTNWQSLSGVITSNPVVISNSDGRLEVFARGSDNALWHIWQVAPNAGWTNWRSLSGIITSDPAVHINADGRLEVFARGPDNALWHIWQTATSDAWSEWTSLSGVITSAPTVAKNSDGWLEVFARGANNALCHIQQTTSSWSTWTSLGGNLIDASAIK
protocol: Glycan array screening with DyLight 488-labeled PLL3
Assay type: binding
settings: glycan array signal of DyLight 488-labeled PLL3 per immobilized glycan or bacterial polysaccharide
Description: Purified PLL3 protein was labeled with DyLight 488 NHS Ester (Thermo Scientific, Rockford, MI, USA) according to the manual instructions of the manufacturer. […] Fluorescence was read with a scanner InnoScan 1100 AL (Innopsys, Carbonne, France) with a 488 nm laser at 20 °C. The data were analyzed with the software Mapix 8.2.2 and an online glycan chip converter (Semiotik, https://rakitko.shinyapps.io/semiotik). […]

| molecule | Median |
| --- | --- |
| CC(=O)N[C@@H]1C(O)C[C@](O[C@@H]2C(O)[C@H](O[C@@H]3C(CO)OC(NC(=O)CN)C(O)[C@H]3O)OC(CO)[C@@H]2O)(C(=O)O)OC1[C@H](O)[C@H](O)CO (stereo partly drawn) [3'SL-Gly] | 101 |
| CC(=O)N[C@H]1[C@H]([C@H](O)[C@H](O)CO)OC(O)(C(=O)O)C[C@@H]1O (stereo partly drawn) [Sia] | 112 |
| CC(=O)N[C@H]1[C@@H](O[C@H]2[C@@H](O)[C@@H](CO)OC(O)[C@@H]2O[C@@H]2O[C@@H](C)[C@@H](O)[C@@H](O)[C@@H]2O)O[C@H](CO)[C@H](O)[C@@H]1O (stereo partly drawn) [Atri] | 167 |
| CC(=O)N[C@H]1[C@@H](OC[C@H](N)C(=O)O)O[C@H](CO)[C@H](O)[C@@H]1O [GalNAca1-OSer] | 208 |
| CC(=O)N[C@H]1[C@H]([C@H](O)[C@H](O)CO)O[C@@](O[C@H](CO)[C@@H](O)[C@@H]2O[C@@](O[C@H](CO)[C@@H](O)[C@@H]3O[C@](O)(C(=O)O)C[C@H](O)[C@H]3NC(C)=O)(C(=O)O)C[C@H](O)[C@H]2NC(C)=O)(C(=O)O)C[C@@H]1O [(Sia)3] | 158 |
| CC(=O)N[C@@H]1[C@@H](O)[C@H](O[C@@H]2O[C@H](CO)[C@H](O)[C@H](O[C@H]3O[C@H](CO)[C@H](O)[C@H](O)[C@H]3NC(C)=O)[C@H]2O[C@@H]2O[C@@H](C)[C@@H](O)[C@@H](O)[C@@H]2O)[C@@H](CO)O[C@H]1O [Atype2] | 158 |
| O=C[C@@H](O)[C@@H](O)[C@H](O)[C@H](O)COP(=O)(O)O [M6P] | 148 |
| NCCOCCOCCOCCOCCOCCOCC(=O)NCCOC1OC(COC2OC(COC3OC(CO)C(O)C3OC3OC(CO)C(O)C3O)C(OC3OC(CO)C(O)C3OC3OC(CO)C(O)C3O)C2O)C(O)C1O (stereo not drawn) | 220 |
| CC(=O)N[C@H]1[C@H](OCCCN)O[C@H](CO)[C@@H](O[C@@H]2O[C@H](CO)[C@H](O)[C@H](O)[C@H]2O)[C@@H]1O [Galb1-4GlcNAcb-sp8] | 184 |
| CC(=O)N[C@H]1[C@H]([C@H](O)[C@H](O)CO)OC(OC[C@H]2O[C@@H](O[C@H]3[C@H](O)[C@@H](NC(C)=O)C(O)O[C@@H]3CO)[C@H](O)[C@@H](O)[C@H]2O)(C(=O)O)C[C@@H]1O (stereo partly drawn) [6'SLN] | 99 |
| NCC(O)C(O)C(O)C(O)CO (stereo not drawn) [HOCH2(HOCH)4CH2NH2] | 293 |
| OC[C@H]1O[C@H](O[C@H]2[C@@H](O)[C@@H](CO)OC(O)[C@@H]2O)[C@H](O)[C@@H](O)[C@H]1O (stereo partly drawn) [Bdi] | 134 |
